The measurements presented in this section are drawn from patent US20250340659A1.

Recorded % Signal Inhibition Rep3, one value per entry.
- Study system: T1, canine OX40L, full length membrane form, expressed on HEK293 cells (canine)
- T1 chain: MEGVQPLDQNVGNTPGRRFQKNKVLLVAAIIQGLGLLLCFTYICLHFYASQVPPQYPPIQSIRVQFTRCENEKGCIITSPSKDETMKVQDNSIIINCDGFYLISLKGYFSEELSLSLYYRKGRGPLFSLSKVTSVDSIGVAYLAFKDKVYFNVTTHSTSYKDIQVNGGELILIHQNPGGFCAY
- Assay details: cell-based or functional assay
Use % as the unit, but write only the number.

Here's what some known entries look like.
Binder	Reported measurement
PMX045 (antibody, V domains shown, also called PMX45) VH: EVQLVESGGDLVKPGGSLRLSCVASGFTFSSYHMTWVRQAPGKGLQWVAYITSGGITTSYADAVKGRFTISRDNAKNTLYLQMSSLRAEDTAMYYCARDLVLLLGGADYWGQGTLVTVSS VL: SYELTQPPSVNVTLRETAHITCGGDSIGRKYVQWIQQNPGQAPVVIIYKDSNRPTGIPERFSGANSGNTATLTISGALAEDEADYYCQVGDSGTKAVFGGGTHLTVL	66.2
PMX027 (antibody, V domains shown, also called PMX27) VH: EVHLVESGGDLVKPGGSLRLSCVASGFTFSTYHMSWVRQAPGKGLQWVAFINAGEISTNYADAVKGRFTISRDNAKNIFYLQMNSLRAEDTAVYYCATGHIWIRPFDYWGQGTLVTVSS VL: SYVLTQLPSMSVTLRQTARITCEGNSIGRKRVNWYQQKLGQVPVLIIYDDDSRPSGIPERFSGANSGNTATLTISGALAEDEAEYYCQVWDSSNNWVFGEGTQLTVL	85.5
PMX051 (antibody, V domains shown, also called PMX51) VH: EVQLVESGGDLVKPGGSLRLSCVASGFSFNTYHMNWVRQAPGKGLHWVAFINSDGGGTSYADTVKGRFTISRDYAKNTLYLQMNSLRAEDTAVYYCVSGSIWTHFDYWGQGTLVTVSS VL: SYVLTQLPSVSMTLRQTAHITCGGDIIGSKSVYWYQQKLGQAPVLIIYRDTNRPTGIPERFSGASSGNTATLTISGALAEDEADYYCQVWDSSTQAVFGGGTHLTVL	94.7
PMX085 (antibody, V domains shown, also called PMX85) VH: EVKLVESGGDLVKPEGSLRLSCVVSGFTFSRYGMSWVRQAPGKGLQWVAYISSDGRSSSYTDAVQGRFTISSDNAKNTLYLQMNSLTTEDTAVYYCAKLGRGFNFNFWGQGTLVTVSS VL: SYVLTQLPSKNVTLKQPAHITCGGDNIGSKSVHWYQQKLGQAPVLIIYYDSSRPTGIPERFSGANSGNTATLTISGALAEDEADYYCQVWDSSASVFGGGTHLTVL	40.8
PMX052 (antibody, V domains shown, also called PMX52) VH: EVQLVESGGDLVKPAGSLRLSCVASGFTFSSYSMSWVRQAPEKGLQLVAGISGGGSRTYYSDAVKGRFTISRDNAKNTVYLQMNSLRAEDTAIYYCAKDGGSWAGYNFDYWGQGTLVTVSS VL: DIVMTQTPPSLSVSPRETASISCKASQSLLHSDGSTYLDWYLQKPGQSPQLLIYLGSNRFTGVSDRFSGSGSGTEFTLRISRVEANDTGVYYCGQGTQLPYTFGQGTELEIK	21.7

Note to self: % Signal Inhibition Rep3 recorded for PMX093 (antibody, V domains shown) VH: EVQLVESGGDLVKPGGSLRLSCVASGFTFSSYHMSWVRQAPGKGLQWVAFINSGGGGTNYADAVKGRFTISRDYAKNTLYLQMNSLRAEDTAVYYCVGGSIWTHFDYWGQGTLVTVSS VL: SYVLTQLPSMSVTLRQTARITCEGDIIASKRVYWYQQKLGQVPVLLIYGDSSRPSGIPERFSGANSGNTATLTISGALAEDEADYYCQVWDSGTNSVFGGGTHLTVL was 17

For record PMX063 (antibody, V domains shown, also called PMX63) VH: EVQLVESGGDLVRPGGSLRLSCVASGFTFNNYHMSWVRQAPGKGLQWVAFINSGGSGTTFADVVRGRFTISRDYAKNALYLQMNSLRAEDTAVYYCASGSIWTHFDYWGQGTLVTVSS VL: SFVLTQLPSVSVTLRQTARITCGGDIIGSKNVYWYQQRLGQAPVLIIYRDNNRPTGIPERFSGASSGNTATLTISGALAEDEADYYCQVWDNSNKAMFGGGTHLTVL the listed % Signal Inhibition Rep3 is 72

So for PMX028 (antibody, V domains shown, also called PMX28) VH: EVQMVESGGDLVKPGGSLRLSCVASGFTFSDYHMSWVRQAPGKGLQWVAYITSGGSSTSYADAVKGRFTISRDNAKNTLYLQMNSLRAEDTAVYYCASDLVLVVGGGVYWGQGTLVTVSS VL: SYELTQPPSVNVTLRETAHITCGGDSIGSKYVQWIQQNPGQAPVVIIYKDSNRPTGIPERFSGANSGNTATLTISGALAEDEADYYCQVGDSGTKAVFGEGTQLTVL , the logged % Signal Inhibition Rep3 turned out to be 62.1

Noted for PMX092 (antibody, V domains shown) VH: EVQLVESGGDLVKPGGSLRLSCVASGFTFNNLHMSWVRQAPGKGLQWVAFINSDGRNRNYADAVKGRVTISRDYAKNTLYLQINSLRAEDTAVYYCTGGSIWTHFDYWGQGTLVTVSS VL: SYVLTQLPSMSVTLRQTARITCEGDIIASKRVYWYQQKLGQVPVLFIYADNSRPSGIPERFSGASSGNTATLTISGALAEDEADYYCQVWDSNANSVFGGGTHLTVL : its % Signal Inhibition Rep3 reads 31.6

Sample PMX064 (antibody, V domains shown, also called PMX64) VH: EVQLVESGGDLVKPGGSLRLSCVASGFTFSSYHMSWVRQAPGKGLQWVAYITSGGITTSYADAVKGRFTISRDNAKNTLYLQMNSLRAEDTAVYYCASDLVLILGGADYWGQGTLVTVSS VL: SYELTQPPSVNVTLSETAHITCGGDSIGRKYVQWIQQNPGQAPVVIIYKDSNRPTGIPERFSGANSGNTATLTISGALAEDEADYYCQVGDSGTKAVFGGGTHLTVL ; % Signal Inhibition Rep3 observed: 89.7
